B1: library; a variant is named by its letters at N, in order (parent)
chain: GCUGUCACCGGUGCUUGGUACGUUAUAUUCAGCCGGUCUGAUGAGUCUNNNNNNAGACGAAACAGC

- Variants of: B1
- Experiment Notes: normalized RNA/DNA level with ligand (relative to sTRSVctl = 100) (log10 (% of sTRSVctl)); HEK293T overexpressing SLC46A1; ligand concentration (+) RNA-Seq: 6 mM; higher = less ribozyme self-cleavage, higher mRNA level
- Run Parameters: with (6R,S)-folinic acid; ligand present: yes
Quantity Name: normalized RNA/DNA level with ligand (log10)

Reference set, count: 2
[[record]]
mutation_label = "CGACUC"
reported_measurement = 2.04

[[record]]
mutation_label = "CCCAUA"
reported_measurement = 2.03


get_value(item= CUCGCU , readout=normalized RNA/DNA level with ligand (log10)) returns 2.02

Notebook: AUUACA , normalized RNA/DNA level with ligand (log10) read as 2.01

For AAUGGG the variant record lists normalized RNA/DNA level with ligand (log10) as 2

In plain terms, CGAAGA has a documented normalized RNA/DNA level with ligand (log10) of 2.01

The variant CCUGCU showed normalized RNA/DNA level with ligand (log10) equal to 2.08

The recorded normalized RNA/DNA level with ligand (log10) for entry UCGUAU equals 2

Per the record, AACGAG has normalized RNA/DNA level with ligand (log10) of 1.98

Please fill in: normalized RNA/DNA level with ligand (log10) reported for UUCCUC = 2.06

Lookup result for AGCAUA ; measured normalized RNA/DNA level with ligand (log10): 2.02

The recorded normalized RNA/DNA level with ligand (log10) for GCGAGG is 2.05

The reported value for GCGUCG in terms of normalized RNA/DNA level with ligand (log10) is 2.07

Lookup result for GUUCCG ; measured normalized RNA/DNA level with ligand (log10): 2.02

Item: UGGGUC | normalized RNA/DNA level with ligand (log10): 2.06

Form field normalized RNA/DNA level with ligand (log10), entry AUCAGA : 2.04

Form: variant = GCAUCG ; normalized RNA/DNA level with ligand (log10) = 2.06

Recorded result, GGUGUG , normalized RNA/DNA level with ligand (log10): 2.04

Record summary for GCUUGA : reported normalized RNA/DNA level with ligand (log10) = 2.02
